- subjectOfTest: Full-length, GST-tagged, human CaMKIIδ (Homo sapiens)
- Construct: Full-Length, Glutathione-S-Transferase(GST)-Tagged, Human CaMKIIδ was purchased from Carna Biosciences; purchased Carna Biosciences 02-111
- protocol: CaMKIIδ binding assay (TR-FRET with BODIPY-labeled probe ligand)
- measurementSetup: Table 2; CaMKIIδ binding assay, activity given as class A/B/C
- Method: In vitro CaMKIIδ inhibitory activity was evaluated by a binding assay. Full-Length, Glutathione-S-Transferase(GST)-Tagged, Human CaMKIIδ was purchased from Carna Biosciences (product #02-111, Kobe, Japan). Full-length bovine calmodulin was purchased from Wako Pure Chemical Industries (Osaka, Japan). […] Time-Resolved Fluorescence Resonance Energy Transfer (TR-FRET) Assay […] The percentage of inhibition of test compounds was calculated according to equation (1) Inhibition (%)=100×([…]−T)/(μH−μL) (1) […]
pIC50: −log10 of the molar value.
parameter: pIC50

{"molecule": "C[C@@H](Cn1cnnn1)Oc1cc(-c2cnc(Nc3cn(CC(O)CO)nc3C(F)(F)F)nc2)ccc1Cl (stereo partly shown) [Example 736]", "endpointValue": "> 8.00"}
{"molecule": "C[C@@H](Cn1cnnn1)Oc1cc(-c2cnc(Nc3cn([C@H]4CC[C@@H](N5CCOCC5)CC4)nc3OCC(F)F)nc2)ccc1Cl [Example 805]", "endpointValue": "> 8.00"}
{"molecule": "C[C@@H](Cn1cnnn1)Oc1cc(-c2cnc(Nc3cn(C4CC5(C4)CN(C4CCOCC4)C5)nc3C(F)(F)F)nc2)ccc1Cl [Example 831]", "endpointValue": "> 8.00"}
{"molecule": "Cc1ccc(-c2cnc(Nc3cn([C@H]4CC[C@@H](N5CCOCC5)CC4)nc3C(F)(F)F)nc2)cc1O[C@@H](C)Cn1cnnn1 [Example 809]", "endpointValue": "7.00 to 8.00"}
{"molecule": "CC(C)N1CC2(CC(n3cc(Nc4ncc(-c5ccc(Cl)c(O[C@@H](C)Cn6cnnn6)c5)cn4)c(OCC(F)(F)F)n3)C2)C1 [Example 815]", "endpointValue": "> 8.00"}
{"molecule": "C[C@@H](Cn1cnnn1)Oc1cc(-c2cnc(Nc3cn(C)nc3OCC(F)(F)F)nc2)ccc1Cl [Example 759]", "endpointValue": "> 8.00"}
{"molecule": "C[C@@H](Cn1cc(F)cn1)Oc1cc(-c2cnc(Nc3cn([C@H]4CC[C@H](N5CCOCC5)CC4)nc3OCC(F)(F)F)nc2)ccc1C#N [Example 830]", "endpointValue": "> 8.00"}
{"molecule": "C[C@@H](Cn1cnnn1)Oc1cc(-c2cnc(Nc3cn([C@H]4CC[C@@H](N5CCOCC5)CC4)nc3OCC(F)(F)F)nc2)ccc1C#N [Example 818]", "endpointValue": "> 8.00"}
{"molecule": "CC(C)c1nn([C@H]2CC[C@H](N3CCOCC3)CC2)cc1Nc1ncc(-c2ccc(Cl)c(O[C@@H](C)Cn3cnnn3)c2)cn1 [Example 843]", "endpointValue": "> 8.00"}
{"molecule": "C[C@@H](Cn1cccn1)Oc1cc(-c2cnc(Nc3cn([C@H]4CC[C@H](N5CCOCC5)CC4)nc3C(F)(F)F)nc2)ccc1C#N [Example 786]", "endpointValue": "7.00 to 8.00"}
{"molecule": "Cc1cc(Nc2ncc(-c3ccc(Cl)c(O[C@@H](C)Cn4cnnn4)c3)cn2)n(C)n1 [Example 751]", "endpointValue": "7.00 to 8.00"}
{"molecule": "C[C@@H](Cn1cnnn1)Oc1cc(-c2cnc(Nc3cn(-c4cccc(=O)[nH]4)nc3OCC(F)(F)F)nc2)ccc1Cl [Example 879]", "endpointValue": "7.00 to 8.00"}
{"molecule": "C[C@@H](Cn1cnnn1)Oc1cc(-c2cnc(Nc3cn([C@H]4CC[C@H](N5CC(C)(O)C5)CC4)nc3OCC(F)(F)F)nc2)ccc1Cl [Example 802]", "endpointValue": "> 8.00"}

###

IC50 by entry:
- subjectOfTest: Full-length, GST-tagged, human CaMKIIδ (Homo sapiens)
- Construct: Full-Length, Glutathione-S-Transferase(GST)-Tagged, Human CaMKIIδ was purchased from Carna Biosciences; purchased Carna Biosciences 02-111
- protocol: CaMKIIδ binding assay (TR-FRET with BODIPY-labeled probe ligand)
- measurementSetup: CaMKIIδ binding assay, results of Table 2

{"compound": "C[C@@H](Cn1cnnn1)Oc1cc(-c2cnc(Nc3cn(C4CCN(CCC(C)(C)C)CC4)nc3C(F)(F)F)nc2)ccc1Cl [Example 547]", "IC50": "< 10 nM"}
{"compound": "COc1cc2c(cc1Nc1ncc(-c3ccc(Cl)c(O[C@@H](C)Cn4cnnn4)c3)cn1)CCN(C=O)C2 [Example 471]", "IC50": "10 to 100 nM"}
{"compound": "CCN(C)CC(=O)N1CCc2cc(Nc3ncc(-c4ccc(Cl)c(O[C@@H](C)Cn5cnnn5)c4)cn3)c(OC)cc2C1 [Example 514]", "IC50": "< 10 nM"}
{"compound": "COc1cnc(N2CCC(N3CCOCC3)CC2)cc1Nc1ncc(-c2ccc(Cl)c(O[C@@H](C)Cn3cnnn3)c2)cn1 [Example 456]", "IC50": "< 10 nM"}
{"compound": "C[C@@H](Cn1cnnn1)Oc1cc(-c2cnc(Nc3cn(C4CCN(C5CCOCC5)CC4)nc3C3CC3)nc2)ccc1Cl [Example 545]", "IC50": "< 10 nM"}
{"compound": "COc1ccc(N2CCN(C3CCOCC3)CC2)cc1Nc1ncc(-c2ccc(Cl)c(O[C@@H](C)Cn3cnnn3)c2)cn1 [Example 582]", "IC50": "< 10 nM"}
{"compound": "COc1cc2c(cc1Nc1ncc(-c3ccc(Cl)c(O[C@@H](C)Cn4cnnn4)c3)cn1)CN(C(=O)CO)CC2 [Example 522]", "IC50": "10 to 100 nM"}

###

- subjectOfTest: Full-length, GST-tagged, human CaMKIIδ (Homo sapiens, UniProt Q13557)
- Construct: Full-Length, Glutathione-S-Transferase(GST)-Tagged, Human CaMKIIδ was purchased from Carna Biosciences; purchased Carna Biosciences 02-111
- Sequence (Q13557 1-478 isoform Q13557-12): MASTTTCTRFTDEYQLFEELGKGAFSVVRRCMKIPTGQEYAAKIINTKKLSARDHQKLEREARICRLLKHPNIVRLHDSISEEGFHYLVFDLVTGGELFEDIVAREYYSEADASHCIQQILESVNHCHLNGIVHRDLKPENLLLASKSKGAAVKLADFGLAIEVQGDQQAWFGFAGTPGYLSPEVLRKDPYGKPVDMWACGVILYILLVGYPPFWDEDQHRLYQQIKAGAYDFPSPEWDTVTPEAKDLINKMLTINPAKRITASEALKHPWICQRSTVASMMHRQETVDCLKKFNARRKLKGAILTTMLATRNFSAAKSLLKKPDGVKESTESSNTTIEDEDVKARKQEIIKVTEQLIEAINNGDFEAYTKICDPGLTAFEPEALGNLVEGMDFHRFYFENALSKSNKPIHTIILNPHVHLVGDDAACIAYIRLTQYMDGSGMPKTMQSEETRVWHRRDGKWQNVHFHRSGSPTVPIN
- protocol: CaMKIIδ binding assay (TR-FRET with BODIPY-labeled probe ligand)
- measurementSetup: Table 2; activity class for CaMKIIδ
// IC50 lookup, one value per entry

{"compound": "C[C@@H](Cn1cnnn1)Oc1cc(-c2cnc(Nc3cn(C4CCSCC4)nc3C(F)(F)F)nc2)ccc1Cl [Example 663]", "IC50": "0.01 to 0.1 µM"}
{"compound": "C[C@@H](Cn1cnnn1)Oc1cc(-c2cnc(Nc3cn(CCN4CCCC4)nc3C(F)(F)F)nc2)ccc1Cl [Example 631]", "IC50": "< 0.01 µM"}
{"compound": "CCOc1nn(C2CCN(C3CCOCC3)CC2)cc1Nc1ncc(-c2ccc(Cl)c(O[C@@H](C)Cn3cnnn3)c2)cn1 [Example 587]", "IC50": "< 0.01 µM"}
{"compound": "COc1nc(N2CCN(C(=O)C(F)(F)F)CC2)ccc1Nc1ncc(-c2ccc(Cl)c(O[C@@H](C)Cn3cnnn3)c2)cn1 [Example 638]", "IC50": "≥ 0.1 µM"}
{"compound": "C[C@@H](Cn1cnnn1)Oc1cc(-c2cnc(Nc3cn(C4CCCCO4)nc3OCC(F)(F)F)nc2)ccc1Cl (some centres unmarked) [Example 678]", "IC50": "< 0.01 µM"}
{"compound": "C[C@@H](Cn1cnnn1)Oc1cc(-c2cnc(Nc3cn(CC(=O)N4CCOCC4)nc3C(F)(F)F)nc2)ccc1Cl [Example 607]", "IC50": "< 0.01 µM"}
{"compound": "C[C@@H](Cn1cnnn1)Oc1cc(-c2cnc(Nc3cc(N4CC(N5CCOCC5)C4)ncc3OC(F)(F)F)nc2)ccc1Cl [Example 627]", "IC50": "0.01 to 0.1 µM"}
{"compound": "C[C@@H](Cn1cnnn1)Oc1cc(-c2cnc(Nc3cn(C4CCC(O)CC4)nc3C(F)(F)F)nc2)ccc1Cl (some centres unmarked) [Example 670]", "IC50": "0.01 to 0.1 µM"}
{"compound": "C[C@@H](Cn1cnnn1)Oc1cc(-c2cnc(Nc3ccn(C(C)(C)C)n3)nc2)ccc1Cl [Example 715]", "IC50": "≥ 0.1 µM"}
{"compound": "COc1cc(N2CCN3CCOCC3C2)ccc1Nc1ncc(-c2ccc(Cl)c(O[C@@H](C)Cn3cnnn3)c2)cn1 (some centres unmarked) [Example 673]", "IC50": "< 0.01 µM"}
{"compound": "C[C@@H](Cn1cnnn1)Oc1cc(-c2cnc(Nc3cn(Cc4ccccn4)nc3C(F)(F)F)nc2)ccc1Cl [Example 707]", "IC50": "0.01 to 0.1 µM"}
{"compound": "C[C@@H](Cn1cnnn1)Oc1cc(-c2cnc(Nc3cn(C4CCCN(C(=O)OC(C)(C)C)C4)nc3C(F)(F)F)nc2)ccc1Cl (some centres unmarked) [Example 599]", "IC50": "≥ 0.1 µM"}
{"compound": "COc1nn(C2CCN(C3COC3)CC2)cc1Nc1ncc(-c2ccc(Cl)c(O[C@@H](C)Cn3cnnn3)c2)cn1 [Example 661]", "IC50": "< 0.01 µM"}
{"compound": "CC(C)n1ccc(Nc2ncc(-c3ccc(Cl)c(O[C@@H](C)Cn4cnnn4)c3)cn2)n1 [Example 723]", "IC50": "0.01 to 0.1 µM"}

Numbers sourced from patent US10543212B2.
